pIC50: −log10 of the molar value.
Entries below carry reported pIC50 on CLK2 (Homo sapiens).
Sequence (P49760 whole entry): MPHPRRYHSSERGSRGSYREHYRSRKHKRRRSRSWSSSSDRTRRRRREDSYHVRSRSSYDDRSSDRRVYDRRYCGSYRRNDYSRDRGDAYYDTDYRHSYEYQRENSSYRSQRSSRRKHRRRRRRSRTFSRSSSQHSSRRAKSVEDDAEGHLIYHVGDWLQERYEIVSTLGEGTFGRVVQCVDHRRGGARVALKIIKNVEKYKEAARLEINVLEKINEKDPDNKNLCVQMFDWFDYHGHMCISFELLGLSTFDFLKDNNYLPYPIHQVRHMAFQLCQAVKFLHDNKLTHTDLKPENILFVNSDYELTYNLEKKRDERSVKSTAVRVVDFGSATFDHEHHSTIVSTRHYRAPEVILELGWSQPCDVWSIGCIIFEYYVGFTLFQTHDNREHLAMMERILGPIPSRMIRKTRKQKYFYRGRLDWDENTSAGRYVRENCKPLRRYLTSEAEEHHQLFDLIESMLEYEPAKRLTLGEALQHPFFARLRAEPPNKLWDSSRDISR
Property: pIC50

Solved cases below.
O=C(CCNCc1ccc(OC(F)(F)F)c(Cl)c1)NCCCNc1cc(-c2ccncc2)cc2[nH]ncc12 | 6.51
O=C(CCNCc1ccc(-c2ccccc2)c(Cl)c1)NCCCNc1cc(-n2cncn2)cc2[nH]ncc12 | 6.00
N#CCc1cc(CNCCCCOC2CN(c3cc(-n4cnnc4)cc4[nH]ncc34)C2)cc(OC(F)(F)F)c1 | 6.52
O=C(CCNCc1ccc(OC(F)(F)F)c(Cl)c1)NCCCNc1cc(-c2ccncc2)c(Cl)c2[nH]ncc12 | 6.21
O=C(CNCCCCNCc1ccc(OC(F)(F)F)c(Cl)c1)Nc1cc(-n2cnnc2)cc2[nH]ncc12 | 5.56

P. OCc1cc(CNC2CC(COCCNc3cc(-c4cnns4)cc4[nH]ncc34)C2)cc(OC(F)(F)F)c1 (stereo not drawn)
Q. O=C(CCNCc1ccc(OC(F)(F)F)c(Cl)c1)NCCCNc1cc(-c2ccncc2Cl)cc2[nH]ncc12
From the recorded data, which exceeds the other in pIC50: P or Q ? I would appreciate it if you answered with the label of your choice.
P
(P: 6.51, Q: 5.25)

I. O=C(CCNCc1ccc(OC(F)(F)F)c(Cl)c1)NCCCNc1cc(-c2cnco2)cc2[nH]ncc12
II. O=C(COCCCCNCc1ccc(OC(F)(F)F)c(Cl)c1)Nc1cc(-n2cnnc2)cc2[nH]ncc12
Kindly compare I with II and tell me which has the lower pIC50 figure. I would appreciate it if you answered with the label of your choice.
II
(II: 6.00, I: 6.62)

1. FC(F)(F)Oc1ccc(CNCCCCOC2CN(c3cc(-c4ccnnc4)cc4[nH]ncc34)C2)cc1Cl
2. Cc1cn(-c2cc(NCCCNC(=O)CCNCc3ccc(-c4ccccc4)c(Cl)c3)c3cn[nH]c3c2)cn1
From the recorded data, which exceeds the other in pIC50: 1 or 2 ? I would appreciate it if you answered with the label of your choice.
2
(2: 6.19, 1: 5.58)

I. FC(F)(F)c1ccc2[nH]c(CNCCCCOC3CN(c4cc(-c5ccnnc5)cc5[nH]ncc45)C3)cc2c1
II. Cc1cc(-c2cc(NCCCNC(=O)CCNCc3ccc(-c4ccccc4)c(Cl)c3)c3cn[nH]c3c2)ccn1
From the recorded data, which exceeds the other in pIC50: I or II ? I would appreciate it if you answered with the label of your choice.
II

====

# Experimental System: intracellular CK2α (Homo sapiens)
# Sequence (P19784 whole entry): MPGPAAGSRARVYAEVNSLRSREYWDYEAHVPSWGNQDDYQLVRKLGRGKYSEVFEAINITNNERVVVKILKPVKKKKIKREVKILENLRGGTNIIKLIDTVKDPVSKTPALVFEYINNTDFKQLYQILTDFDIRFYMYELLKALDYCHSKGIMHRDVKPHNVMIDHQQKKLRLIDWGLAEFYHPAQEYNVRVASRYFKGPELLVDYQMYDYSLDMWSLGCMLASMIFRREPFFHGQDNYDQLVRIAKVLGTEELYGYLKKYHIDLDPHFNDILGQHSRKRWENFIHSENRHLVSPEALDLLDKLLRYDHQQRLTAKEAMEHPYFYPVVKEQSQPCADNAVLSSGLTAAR
# Test: Cell-based NanoBRET assay for inhibitor binding to intracellular CK2α
# Conditions: HCT116 cells transiently transfected with CSNK2A2-NanoLuc fusion vector; Tracer K-5; 2 h; read-out: Assay 3: NanoBRET ™ assay for binding to intracellular CK2α
Property: IC50 (nM)

Fc1cc(CNCCCCOCCNc2cc(-n3cnnc3)c(Cl)c3[nH]ncc23)cc(F)c1OC(F)(F)F | 5410
C[C@@H](CCCOCCNc1cc(-c2cnnc(O)c2)cc2[nH]ncc12)NCc1cc(Cc2cnco2)cc(OC(F)(F)F)c1 | 21.4
Clc1ccc2nc(CNCCCCOCCNc3cc(-n4cnnc4)cc4[nH]ncc34)[nH]c2c1 | 17500
C[C@@H](CCCOCCNc1cc(-n2cnnc2)cc2[nH]ncc12)NCc1cc(CO)cc(OC(F)(F)F)c1 | 377
FC(F)(F)c1ccc2[nH]c(CNCCCCOCCNc3cc(-c4cnoc4)cc4[nH]ncc34)cc2c1 | 321

P. O=C(CCNCc1ccc(OC(F)(F)F)c(Cl)c1)NCCCNc1cc(-c2ccncc2)nc2[nH]ncc12
Q. O=C(CCNCc1ccc(OC(F)(F)F)c(Cl)c1)NCCCNc1cc(-c2ncon2)cc2[nH]ncc12
Kindly compare P with Q and tell me which has the lower IC50 figure. I would appreciate it if you answered with the label of your choice.
P
